The values you see were collected from paper PMC10266451.

molecular target: CatSper (cation channel of sperm) (Homo sapiens, UniProt Q7RTX7+Q86XQ3+Q8NEC5+Q96P56); construct: gene CATSPER1; native channel complex in capacitated donor spermatozoa; with Cation channel sperm-associated auxiliary subunit beta; Cation channel sperm-associated auxiliary subunit gamma; Cation channel sperm-associated auxiliary subunit delta; Cation channel sperm-associated auxiliary subunit epsilon; Cation channel sperm-associated auxiliary subunit zeta; assay: fluo4 Ca2+ population fluorimetry in human sperm; type: cell-based; settings: activation; capacitated intact sperm, sEBSS with BSA; whole-cell [Ca2+]i read-out attributed to CatSper; mechanism distinct from progesterone
assay_endpoint: pEC50
Numbers only, as −log10 of the molar value.

Quick check: pEC50 of COc1ccc(CCCOC(Cn2ccnc2)c2ccc(OC)cc2)cc1 (stereo not shown) ? 5.02
